- SYSTEM_TESTED: GABA-ρ2 receptors (Homo sapiens, UniProt P28476)
- Construct: expressed in transfected cells; host or cells: Xenopus laevis oocytes injected with cRNA
- Sequence (P28476 21-465): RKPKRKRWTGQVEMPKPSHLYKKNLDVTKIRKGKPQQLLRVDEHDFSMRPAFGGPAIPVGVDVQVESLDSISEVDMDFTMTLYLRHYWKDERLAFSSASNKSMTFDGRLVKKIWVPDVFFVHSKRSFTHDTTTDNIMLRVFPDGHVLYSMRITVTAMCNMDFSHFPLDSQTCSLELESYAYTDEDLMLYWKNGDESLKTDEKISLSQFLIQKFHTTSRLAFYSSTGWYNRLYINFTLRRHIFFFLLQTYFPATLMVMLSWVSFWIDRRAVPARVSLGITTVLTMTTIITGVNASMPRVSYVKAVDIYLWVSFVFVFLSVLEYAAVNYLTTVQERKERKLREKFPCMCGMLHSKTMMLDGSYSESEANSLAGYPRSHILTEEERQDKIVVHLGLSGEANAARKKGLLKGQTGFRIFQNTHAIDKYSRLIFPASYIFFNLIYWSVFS
- EXPERIMENT: Two-electrode voltage-clamp, co-application of ligand with GABA EC50 at GABA-ρ2 receptors (additive/inhibition)
- Type: cell-based
- STUDY_CONDITIONS: co-applied with GABA EC50 (800 nM); % of GABA EC50 response
In this section, each of the compounds is paired with its reported GABA-ρ2 Additive (%).
Please reply with the bare figure in % and do not write the unit itself.

>>> df
          compound                             system_tested  reported_measurement
0        NCCC(=O)O  GABA-ρ2 receptors (Homo sapiens, UniProt P28476)                   120
1  O=C(O)C1=CCNCC1  GABA-ρ2 receptors (Homo sapiens, UniProt P28476)                   120
2      NCCCCC(=O)O  GABA-ρ2 receptors (Homo sapiens, UniProt P28476)                   110

# input for lookup
The measured GABA-ρ2 Additive (%) associated with NC/C=C/C(=O)O reads 140

---

- SYSTEM_TESTED: GABA-ρ2 receptors (Homo sapiens, UniProt P28476)
- Construct: expressed in transfected cells; host or cells: Xenopus laevis oocytes injected with cRNA
- EXPERIMENT: Two-electrode voltage-clamp, agonist dose–response at GABA-ρ2 receptors expressed in Xenopus oocytes
- Type: cell-based
ASSAY_METRIC: pEC50
The read-out pEC50 is expressed as -log10 of concentration in moles per litre.

Worked set:
>>> df
           compound  reported_measurement
0         NCCC(=O)O                  3.25
1  NCc1cc(=O)[nH]o1                  6.19

# input for lookup
O=C(O)Cc1c[nH]cn1 on GABA-ρ2 receptors (Homo sapiens, UniProt P28476) gives pEC50 = 6.70

---

- SYSTEM_TESTED: GABA-ρ1 receptors (Homo sapiens)
- Construct: expressed in transfected cells; host or cells: Xenopus laevis oocytes injected with cRNA
- Sequence (P24046 22-479): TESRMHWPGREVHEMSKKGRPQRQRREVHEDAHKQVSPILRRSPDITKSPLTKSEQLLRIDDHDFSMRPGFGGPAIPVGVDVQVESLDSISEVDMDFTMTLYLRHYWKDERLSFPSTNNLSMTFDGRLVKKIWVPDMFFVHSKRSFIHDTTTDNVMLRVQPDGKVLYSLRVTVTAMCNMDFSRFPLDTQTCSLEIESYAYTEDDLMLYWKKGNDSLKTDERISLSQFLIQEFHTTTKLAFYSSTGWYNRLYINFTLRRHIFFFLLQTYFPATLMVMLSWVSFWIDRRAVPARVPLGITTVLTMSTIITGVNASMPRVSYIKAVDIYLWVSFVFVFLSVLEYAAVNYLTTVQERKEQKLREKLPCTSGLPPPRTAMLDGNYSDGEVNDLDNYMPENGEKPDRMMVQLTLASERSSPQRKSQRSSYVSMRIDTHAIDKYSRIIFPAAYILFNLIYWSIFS
- EXPERIMENT: Two-electrode voltage-clamp, co-application of ligand with GABA EC50 at GABA-ρ1 receptors (additive/inhibition)
- Type: cell-based
- STUDY_CONDITIONS: co-application curve with GABA EC50
In this section, each of the compounds is paired with its reported GABA-ρ1 Additive/Inhibition Hill slope.
Form rule: numeric answer, no unit written next to it.

>>> print(df.to_string())
            compound                            assay_metric  reported_measurement
0        NCCCCC(=O)O  GABA-ρ1 Additive/Inhibition Hill slope                     3
1  O=C(O)Cc1c[nH]cn1  GABA-ρ1 Additive/Inhibition Hill slope                   1.3

The measured GABA-ρ1 Additive/Inhibition Hill slope associated with O=C(O)C1=CCNCC1 reads 0.57

The measured GABA-ρ1 Additive/Inhibition Hill slope associated with NC/C=C/C(=O)O reads 0.9

The measured GABA-ρ1 Additive/Inhibition Hill slope associated with NCCC(=O)O reads 1.5

The measured GABA-ρ1 Additive/Inhibition Hill slope associated with NC/C=C\C(=O)O reads 0.9
